- Test system: Chordin-like protein 2 (CHRDL2)
- experiment-summary: compounds binding chordin-like 2 – biochemical, small-molecule microarray, 635 nm fluorescence, primary screen (AID 1126);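 note: printed compound slides probed with Chrdl2 protein at 4 µg/mL for 1 h at 4 C; score merges 667 nm emission intensity with signal to noise over three replicate slides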
- experimental-setup: fluorescence 635 nm, higher = more signal
recorded-endpoint: composite z-score

O=C1O[C@@H](c2ccccc2)[C@@H](c2ccccc2)N2[C@@H](c3ccc(O)cc3)[C@]3(C(=O)Nc4ccc(C#CCCO)cc43)[C@@H](C(=O)O)[C@H]12 :: 0.434
Cc1ccccc1/C=C/C=O :: -0.56

I need composite z-score for every entry listed below, if you could help.
1. [N-]=[N+]=NCc1ccccc1C[C@]1(C(=O)NCCN2CCOCC2)N=C(c2ccc(OCCCO)cc2)O[C@H]1c1ccccc1CN=[N+]=[N-]
2. [N-]=[N+]=NCc1ccccc1[C@@H]1OC(c2ccc(OCCCO)cc2)=N[C@]1(Cc1ccccc1N=[N+]=[N-])C(N)=O

1: -0.0255; 2: -0.124

Need composite z-score for each of these compounds.
1. C=C(C(=O)CC[C@H](OC(=O)c1cccnc1)c1ccccc1OCCO)C(C)C
2. C=CCOC(=O)[C@@H]1[C@H]2C(=O)O[C@H](c3ccccc3)[C@H](c3ccccc3)N2[C@H](c2ccc(OCCOC(=O)[C@H]3C[C@H]4C(=O)N[C@@H](Cc5ccccc5)C(=O)N4[C@H]3c3ccc(O)cc3)cc2)[C@@]12C(=O)Nc1ccc(I)cc12

1. 1.39
2. 1.12

For every record below, what is its composite z-score?
1. CCOC(=O)C=Cc1cccc(OC)c1O
2. CC(C)C[C@@H]1NC(=O)[C@@H]2C[C@H](C(=O)NCCCCN(C)C)[C@H](c3ccc(O)cc3)N2C1=O
3. COC(=O)[C@@]1(Cc2ccc(OC)cc2)[C@H]2c3cc(C(=O)N(C)C)n(CCSCCO)c3C[C@H]2CN1C(=O)c1ccccc1
4. CCCCCN1CC=CC23O[C@@H]4C=CCCOC(=O)C4[C@H]2C(=O)N(CCCO)[C@@H]3C1=O (stereo not given in full)
5. OCCCc1cc[n+](Cc2cccc(OC(F)(F)F)c2)cc1

[-1.32, -0.631, -0.186, -0.277, 0.421]

Would you mind listing composite z-score for each of the following compounds?
1. CCOC(=O)C[C@H]1[C@H](OC(=O)c2ccccc2-c2ccccc2)[C@@H](NC(=O)c2ccc(-c3ccccc3)cc2)c2cc(OCCCO)ccc2N1C(=O)c1ccccc1
2. COC(=O)[C@@]1(Cc2ccccc2)[C@H]2c3cc(C(=O)N(C)C)n(Cc4cc(F)c(F)c(F)c4)c3C[C@H]2CN1C(=O)c1ccccc1
3. CN1C(=O)C2C(C1=O)C1C=C(c3ccc(CO)cc3)C2C(C2CC2)N1Cc1sc2ccccc2c1Cl (stereo not given)
4. Cc1ccc([C@H]2C(C(=O)O)=C[C@@H](C(C)C)N2S(=O)(=O)c2ccc(C)cc2)cc1

1: 0.225; 2: -0.801; 3: -0.124; 4: -0.209
